Assay: Test B: Cytotoxicity Assay
Type: cell-based
Conditions: human, uninfected MT-4 cells, CellTiter-Glo
Method: Test B: Cytotoxicity Assay Compound cytotoxicity and the corresponding CC50 values was determined using the same protocol as described in the antiviral assay (Test A) except that uninfected cells were used.
// CC50 at 5 days lookup, one value per entry
Use µM as the unit, but write only the number.

{"compound": "Cc1c(-c2ccc(C#CC3(O)COC3)nc2[C@H](Cc2cc(F)cc(F)c2)NC(=O)Cn2nc(C(F)(F)F)c3c2C(F)(F)[C@@H]2C[C@H]32)ccc2n[nH]c(=O)n12", "CC50 at 5 days / µM": 11.7}

Ask: Respond only with CC50 at 5 days recorded for Cn1nc(O)c2c(Cl)ccc(-c3ccc(C#CC4(O)CCOCC4)nc3[C@H](Cc3cc(F)cc(F)c3)NC(=O)Cn3nc(C(F)F)c4c3C(F)(F)[C@@H]3C[C@H]43)c21 [Compound 109E]
Reply: 22.3

====

Assay: Test B: Cytotoxicity Assay
Assay type: cell-based
Conditions: human, uninfected MT-4 cells, CellTiter-Glo
Flag rule - CC50 at 5 days less than 8 µM flags label 1; the remaining entries get label 0.

{"compound": "Cn1nc(NS(C)(=O)=O)c2c(Cl)ccc(-c3ccc(C#CC4(O)CCCNC4)nc3[C@H](Cc3cc(F)cc(F)c3)NC(=O)Cn3nc(C(F)(F)F)c4c3C(F)(F)[C@@H]3C[C@H]43)c21 (some centres unmarked)", "category": "label 1"}

Ask: Input Cn1nc(NS(C)(=O)=O)c2cccc(-c3ccc(C#CC4(O)CCOCC4)nc3[C@H](Cc3cc(F)cc(F)c3)NC(=O)Cn3nc(C(F)(F)F)c4c3C(F)(F)[C@@H]3C[C@H]43)c21 ; condition: CC50 at 5 days strictly below 8 µM. Does it hold?
Reply: label 0

Ask: CC50 at 5 days under 8 µM? Item: Cn1nc(NS(C)(=O)=O)c2c(Cl)ccc(-c3ccc(C#CC4(O)CC(F)(F)C4)nc3[C@H](Cc3cc(F)cc(F)c3)NC(=O)Cn3nc(C(F)(F)F)c4c3C(F)(F)[C@@H]3C[C@H]43)c21
Reply: label 0

Ask: Confirm or reject: CC50 at 5 days of Cn1nc(NS(C)(=O)=O)c2c(Cl)ccc(-c3ccc(C#CC(C)(C)N4CCOC4=O)nc3[C@H](Cc3cc(F)cc(F)c3)NC(=O)Cn3nc(C(F)F)c4c3C(F)(F)[C@@H]3C[C@H]43)c21 [Compound 60D] lies strictly below 8 µM
Reply: label 0

Ask: Strictly below 8 µM: is that where CC50 at 5 days of Cn1nc(NS(C)(=O)=O)c2c(Cl)ccc(-c3ccc(C#C[C@]4(C)CNCCO4)nc3[C@H](Cc3cc(F)cc(F)c3)NC(=O)Cn3nc(C#N)c4c3C(F)(F)[C@@H]3C[C@H]43)c21 [Compound 88L] sits?
Reply: label 1

Ask: Input O=C(Cn1nc(C(F)F)c2c1C(F)(F)CCC2(F)F)N[C@@H](Cc1cc(F)cc(F)c1)c1nc(C#Cc2cncnc2)ccc1-c1ccc2c(c1)C(=O)NC21CC1 ; condition: CC50 at 5 days strictly below 8 µM. Does it hold?
Reply: label 1

Ask: Quick check: does O=C(Cn1nc(C(F)F)c2c1C(F)(F)CCC2(F)F)N[C@@H](Cc1cc(F)cc(F)c1)c1nc(C#Cc2cncnc2)ccc1-c1ccc2c(c1)C(=O)NC2 have CC50 at 5 days under 8 µM?
Reply: label 0
